# Tested on: U-251
# testName: NCI tumour cell line growth inhibition, 48 h
Active and inactive are the calls of the source. No stated cut-off is given here; in the data, active = GI50 up to about 1.1 µM and inactive = higher.
readout: GI50

INSERT INTO results (compound, readout, result) VALUES
  ('O=C1CCN2c3ccccc3[C@H]3Cc4cccc(c4[C@@H]2C3)CCO1', 'GI50', '40.5 µM (inactive)'),
  ('CN1CCC(CN2c3ccccc3Sc3ccccc32)CC1', 'GI50', '15.7 µM (inactive)'),
  ('CSc1nc2nc(C(O)C(O)C(O)CO)cnc2c(=O)[nH]1 (stereo unspecified)', 'GI50', '> 100 µM (inactive)'),
  ('CCOC(=O)/C(C(=O)Nc1cccc(C(F)(F)F)c1)=C(/N)N1CCCC1', 'GI50', '76.9 µM (inactive)'),
  ('Cc1[nH]nc2c1C(=O)C=C(N(CCO)c1ccccc1)C2=O', 'GI50', '> 100 µM (inactive)'),
  ('O=C1CCN(CCC(F)(F)C(F)(F)C(F)(F)C(F)(F)F)C(=S)N1', 'GI50', '> 100 µM (inactive)');

###

Listing: GI50 of selected compounds
# Test system: EKVX
# testName: NCI tumour cell line growth inhibition, 48 h
Calls of active or inactive are those of the source. No stated cut-off is given here; in the data, active = GI50 up to about 1.1 µM and inactive = higher.
readout: GI50

INSERT INTO measurements (smilescode, targetundertest, result) VALUES
  ('CCN1C(=O)C(=Cc2ccc(-c3ccccc3)cc2)C(=O)N(CC)C1=S', 'EKVX', '> 100 µM (inactive)'),
  ('C[n+]1cccc2ccc3cccnc3c21', 'EKVX', '6.84 µM (inactive)'),
  ('O=S(=O)(O)c1ccc2cccc(/N=N\c3c(O)ccc4ccccc34)c2c1', 'EKVX', '> 100 µM (inactive)');

###

# Tested on: SF-539
# testName: NCI tumour cell line growth inhibition, 48 h
Active and inactive are the calls of the source. No stated cut-off is given here; in the data, active = GI50 up to about 1.1 µM and inactive = higher. Peptide text beside a SMILES is read from it. * marks the point of attachment. Cbz = O=C(OCc1ccccc1)*
Labels: 1 for active, 0 for inactive

INSERT INTO assay_data (molecule, assignedcategory) VALUES
  ('CC1(C)CC(=O)C(C(=O)C(=O)NC2=C(Cl)C(=O)c3ccccc3C2=O)C(=O)C1', 0),
  ('O=C(O)c1ccccc1/C=N/N=C1NCCCCN1', 0),
  ('Cc1cc(Br)c(O)c(-c2cscn2)c1', 0),
  ('COc1ccc(C2CCc3c(cnc4nc(N)nc(N)c34)C2)cc1 (stereo not given)', 0),
  ('CC(CO)[C@H]1OC(=O)C=C2[C@@]13O[C@@H]3[C@H]1OC(=O)[C@@]3(C)[C@H]4O[C@H]4C[C@@]2(C)[C@@H]13 (stereo not given in full)', 0),
  ('O=C(c1ccco1)N(Cc1ccco1)C(=S)Nc1ccccc1', 0),
  ('O=C(c1ccccc1)c1ccc(COc2ccc(C(c3c(O)c4ccccc4oc3=O)c3c(O)c4ccccc4oc3=O)cc2)cc1', 0),
  ('C=C1CC(Cn2ccc(=O)[nH]c2=O)(c2ccc(OC)cc2)OC1=O (stereo not given)', 0),
  ('NC(Cc1ccc(S(=O)(=O)O)cc1)C(=O)NC(CCCCNC(=O)NCCCCC(NC(=O)C(N)Cc1ccc(S(=O)(=O)O)cc1)C(=O)NC(Cc1ccc(S(=O)(=O)O)cc1)C(=O)O)C(=O)NC(Cc1ccc(S(=O)(=O)O)cc1)C(=O)O (stereo not given)', 0),
  ('O=C(Nc1ccccc1Br)c1cccc([N+](=O)[O-])c1O', 0),
  ('Cc1ccc(-c2nnc(-c3ccc4ccccc4c3)o2)cc1', 0),
  ('C1=CC2C=CC(C=C1)P2c1ccccc1 (stereo not given)', 0),
  ('COC(=O)c1ccccc1NC(=S)NN(C)C', 0),
  ('CC[C@H](C)C(=O)O[C@H]1CCC=C2C=C[C@H](C)[C@H](CC[C@@H]3C[C@@H](O)CC(=O)O3)[C@H]21 [MEVASTATIN]', 0),
  ('CN1CCC(CN2c3ccccc3Sc3ccccc32)CC1', 0),
  ('CC(=O)OC1CCCn2c1nc1c2C(=O)C(C)=C(N2CC2)C1=O (stereo not given)', 1),
  ('CC(Cc1ccc(O)c(O)c1)C(C)Cc1ccc(O)c(O)c1 (stereo not given) [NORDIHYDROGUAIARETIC ACID]', 0),
  ('C=CCCc1cc(OC)ccc1CN(C)C(C)(C)CO', 0),
  ('O=C1C2=C(CCCC2)Nc2cccc3ncn1c23', 0),
  ('CC1OC(O)CC(OC(=O)c2ccccc2)C1OC(=O)c1ccccc1 (stereo not given)', 0),
  ('N/C(=N\N=C\c1c[nH]c2ccccc12)Nc1ccccc1', 1),
  ('COc1ccc2c(c1)CC[C@@H]1[C@@H]2CC[C@]2(C)C(=O)/C(=C/c3ccc(N(C)C)cc3)C[C@@H]12', 0),
  ('CCOC(=O)CCC(NC(=O)c1ccc(Nc2nc3cc(C(F)(F)F)ccc3nc2-c2ccccc2)cc1)C(=O)OCC (stereo not given)', 0),
  ('O=C(O)CCC(NC(=O)OCc1ccccc1)C(=O)NC(Cc1c[nH]cn1)C(=O)O (stereo not drawn) (Cbz-Glu-His-OH; configuration not given here)', 0),
  ('CC1=NN(C(=O)c2ccccc2O)C(=O)/C1=C/c1cccc([N+](=O)[O-])c1', 1),
  ('C=C1c2[nH]c3ccccc3c2CC(C(=O)O)N1C(O)c1ccc(S(=O)(=O)O)cc1 (stereo not given)', 0),
  ('CCSc1c2ccccc2c(-c2nc(F)nc(F)n2)n1CCc1ccccc1', 0),
  ('NC(Cc1ccc(O)cn1)C(=O)NC(C(=O)O)c1ccccc1 (stereo not given)', 0),
  ('Cc1cc2c(cc1C)[n+]([O-])c(C(=O)/C=C/c1ccc(Cl)cc1)c(C)[n+]2[O-]', 0),
  ('CCCCCCc1nn2c(-c3ccncc3)nnc2s1', 0);
